B1: PhoQ; a variant is named by its letters at X, in order, P23837 (parent)
chain: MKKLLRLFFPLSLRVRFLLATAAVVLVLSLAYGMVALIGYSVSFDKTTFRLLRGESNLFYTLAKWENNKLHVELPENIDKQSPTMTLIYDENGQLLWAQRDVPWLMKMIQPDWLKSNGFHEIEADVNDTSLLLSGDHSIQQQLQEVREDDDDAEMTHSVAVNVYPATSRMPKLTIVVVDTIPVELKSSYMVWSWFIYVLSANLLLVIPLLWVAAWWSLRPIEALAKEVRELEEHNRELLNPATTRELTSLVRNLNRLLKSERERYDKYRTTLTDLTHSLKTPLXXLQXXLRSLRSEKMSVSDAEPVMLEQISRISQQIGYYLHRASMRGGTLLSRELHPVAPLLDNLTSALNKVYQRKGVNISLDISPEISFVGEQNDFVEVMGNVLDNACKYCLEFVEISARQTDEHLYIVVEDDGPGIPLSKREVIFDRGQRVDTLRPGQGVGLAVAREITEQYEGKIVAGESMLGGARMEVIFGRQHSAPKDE

Variants of: B1
Assay: enrichment ratio after two sorts for PhoP signalling (ratio (wild type AVST 3.29)); higher = more functional
Conditions: with PhoP (E. coli)
The full ranking holds about 140,000 sequences; the median of “enrichment ratio after two sorts for PhoP signalling” is about 0, and the highest 2% start at about 11. This is one part of a sample in which the highest values are shown more often than they occur.
measurement-label: enrichment ratio
Form field (numeric): enter value without unit.

TCSL    16.4
AEWS    8.72
YEMV    2.64
YEMS    14.7
TYMM    2.16

Give the measured enrichment ratio for TCWI
1.27

Supply enrichment ratio value. Item: SITG
16.2

Look up enrichment ratio of TMSE and report it.
15.9

Dear colleague, please send me the reported enrichment ratio for TIQC when you can.
0.791

Using the record for SQTG , state its measured enrichment ratio.
9.26

Look up and report measured enrichment ratio for this entry: AECA
42.4

Give enrichment ratio for the following variant: STTG
7.62

Please look at this variant and report its enrichment ratio: NSRA
0.539

Return reported enrichment ratio. Input variant: TGAC
11.4

Supply reported enrichment ratio belonging to this variant: YTLE
3.23
